Cited source: the supplement of paper PMC3334620

# System under test: Msn1 (UniProt P22148)
# Sequence: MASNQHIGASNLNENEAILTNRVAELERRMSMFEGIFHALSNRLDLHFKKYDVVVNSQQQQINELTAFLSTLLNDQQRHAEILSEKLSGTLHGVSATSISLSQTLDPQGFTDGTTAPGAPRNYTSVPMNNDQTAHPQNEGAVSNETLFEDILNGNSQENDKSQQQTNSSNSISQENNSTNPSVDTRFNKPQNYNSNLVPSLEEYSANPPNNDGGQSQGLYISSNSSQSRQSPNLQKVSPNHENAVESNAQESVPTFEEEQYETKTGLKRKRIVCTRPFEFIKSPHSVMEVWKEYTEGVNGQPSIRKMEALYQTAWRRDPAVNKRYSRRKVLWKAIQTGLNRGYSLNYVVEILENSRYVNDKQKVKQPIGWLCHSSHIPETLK
# Method notes: PBM E-score (8-mer binding enrichment) (E-score (-0.5 to 0.5)); higher = stronger / more preferred TF binding
# Condition details: protein concentration: 200 nM; construct: GST-full length
The full ranking holds about 33,000 sequences; the median of “E-score (-0.5 to 0.5)” is about -0.013, and the highest 2% start at about 0.3. The full list was thinned out, with the highest values kept by preference.
Below, each entry is listed with its recorded PBM E-score.
Attribute measured: PBM E-score

[
  {
    "Macromolecule sequence": "GCGGGCAC",
    "Attribute measured": "PBM E-score",
    "Measurement": -0.0424
  },
  {
    "Macromolecule sequence": "ATCGCCTC",
    "Attribute measured": "PBM E-score",
    "Measurement": -0.0571
  },
  {
    "Macromolecule sequence": "AGCCCTGC",
    "Attribute measured": "PBM E-score",
    "Measurement": -0.252
  },
  {
    "Macromolecule sequence": "TACATGGA",
    "Attribute measured": "PBM E-score",
    "Measurement": 0.193
  },
  {
    "Macromolecule sequence": "GCTCCCAC",
    "Attribute measured": "PBM E-score",
    "Measurement": -0.135
  },
  {
    "Macromolecule sequence": "AGGCATGA",
    "Attribute measured": "PBM E-score",
    "Measurement": -0.183
  },
  {
    "Macromolecule sequence": "ATTTTGAA",
    "Attribute measured": "PBM E-score",
    "Measurement": 0.126
  },
  {
    "Macromolecule sequence": "AACATCCC",
    "Attribute measured": "PBM E-score",
    "Measurement": 0.0693
  },
  {
    "Macromolecule sequence": "GCGATCAA",
    "Attribute measured": "PBM E-score",
    "Measurement": -0.0507
  },
  {
    "Macromolecule sequence": "CCTCGTTC",
    "Attribute measured": "PBM E-score",
    "Measurement": -0.202
  },
  {
    "Macromolecule sequence": "GACATGCC",
    "Attribute measured": "PBM E-score",
    "Measurement": 0.337
  }
]

###

# System under test: Msn1 (UniProt P22148)
# Sequence: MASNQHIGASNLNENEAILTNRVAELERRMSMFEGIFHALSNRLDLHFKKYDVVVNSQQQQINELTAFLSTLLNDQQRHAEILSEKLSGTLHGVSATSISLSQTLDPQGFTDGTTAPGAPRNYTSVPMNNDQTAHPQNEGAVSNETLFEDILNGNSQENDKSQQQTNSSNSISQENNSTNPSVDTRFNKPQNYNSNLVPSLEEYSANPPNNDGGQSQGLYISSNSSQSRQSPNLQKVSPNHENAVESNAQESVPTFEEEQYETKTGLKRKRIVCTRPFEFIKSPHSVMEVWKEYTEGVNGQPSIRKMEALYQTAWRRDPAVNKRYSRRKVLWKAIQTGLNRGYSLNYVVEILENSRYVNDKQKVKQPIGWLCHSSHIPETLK
# Method notes: PBM E-score (8-mer binding enrichment) (E-score (-0.5 to 0.5)); higher = stronger / more preferred TF binding
# Condition details: protein concentration: 200 nM; construct: GST-full length
In all, about 33,000 sequences were measured (“E-score (-0.5 to 0.5)”: median about -0.013, highest 2% from about 0.3 on). This excerpt belongs to a sample that is enriched for the highest values.
Attribute measured: PBM E-score

[
  {
    "Macromolecule sequence": "CGCACTTA",
    "Measurement": -0.0705
  },
  {
    "Macromolecule sequence": "ATTTATAC",
    "Measurement": 0.176
  },
  {
    "Macromolecule sequence": "AGATCCTC",
    "Measurement": -0.125
  },
  {
    "Macromolecule sequence": "CTTGTACA",
    "Measurement": 0.311
  },
  {
    "Macromolecule sequence": "ATATCTGA",
    "Measurement": 0.112
  },
  {
    "Macromolecule sequence": "AGTTTGTA",
    "Measurement": 0.182
  },
  {
    "Macromolecule sequence": "GGTCAAAC",
    "Measurement": 0.114
  },
  {
    "Macromolecule sequence": "ATTGTCCG",
    "Measurement": 0.468
  },
  {
    "Macromolecule sequence": "CTGATGTC",
    "Measurement": 0.282
  },
  {
    "Macromolecule sequence": "CTTTATAA",
    "Measurement": 0.177
  },
  {
    "Macromolecule sequence": "AGGATGTC",
    "Measurement": 0.398
  },
  {
    "Macromolecule sequence": "CGTTTGAC",
    "Measurement": 0.12
  },
  {
    "Macromolecule sequence": "AGGATGTA",
    "Measurement": -0.0489
  },
  {
    "Macromolecule sequence": "AACGAGCT",
    "Measurement": -0.0712
  },
  {
    "Macromolecule sequence": "ATTGTTCG",
    "Measurement": 0.259
  },
  {
    "Macromolecule sequence": "CGTTGTTC",
    "Measurement": 0.0573
  },
  {
    "Macromolecule sequence": "AGGATGTG",
    "Measurement": -0.0903
  },
  {
    "Macromolecule sequence": "GTCGGATA",
    "Measurement": 0.0474
  },
  {
    "Macromolecule sequence": "ATCGTCCA",
    "Measurement": -0.0991
  },
  {
    "Macromolecule sequence": "ACTGTCCG",
    "Measurement": 0.183
  },
  {
    "Macromolecule sequence": "CTTGTACC",
    "Measurement": 0.286
  },
  {
    "Macromolecule sequence": "CAGATGTC",
    "Measurement": 0.347
  },
  {
    "Macromolecule sequence": "AAGATGTC",
    "Measurement": 0.252
  },
  {
    "Macromolecule sequence": "ATGCGTTA",
    "Measurement": -0.0377
  },
  {
    "Macromolecule sequence": "CTGGTCGC",
    "Measurement": -0.0171
  },
  {
    "Macromolecule sequence": "ATAACGAT",
    "Measurement": -0.192
  },
  {
    "Macromolecule sequence": "CACGCCAC",
    "Measurement": -0.127
  },
  {
    "Macromolecule sequence": "GTCGGAGA",
    "Measurement": 0.0165
  },
  {
    "Macromolecule sequence": "CTTGTCCA",
    "Measurement": 0.464
  },
  {
    "Macromolecule sequence": "CGTTTGTC",
    "Measurement": 0.44
  },
  {
    "Macromolecule sequence": "TAAGAAAA",
    "Measurement": 0.00824
  },
  {
    "Macromolecule sequence": "AATGGGAC",
    "Measurement": 0.0849
  },
  {
    "Macromolecule sequence": "CTCTATGC",
    "Measurement": -0.0926
  },
  {
    "Macromolecule sequence": "CTTGTCAA",
    "Measurement": 0.162
  },
  {
    "Macromolecule sequence": "CCAGATTC",
    "Measurement": -0.389
  },
  {
    "Macromolecule sequence": "GGAGCGAA",
    "Measurement": 0.0407
  },
  {
    "Macromolecule sequence": "AGTGAGGA",
    "Measurement": -0.0425
  },
  {
    "Macromolecule sequence": "AATTAGTC",
    "Measurement": 0.272
  },
  {
    "Macromolecule sequence": "AATTAGTG",
    "Measurement": 0.33
  },
  {
    "Macromolecule sequence": "GTCGGACA",
    "Measurement": 0.427
  },
  {
    "Macromolecule sequence": "CCGCTTCC",
    "Measurement": -0.183
  },
  {
    "Macromolecule sequence": "AGCTTTCC",
    "Measurement": -0.198
  },
  {
    "Macromolecule sequence": "CCGAACAG",
    "Measurement": 0.0877
  },
  {
    "Macromolecule sequence": "GCTTATAA",
    "Measurement": -0.0204
  },
  {
    "Macromolecule sequence": "CCTGCAAA",
    "Measurement": -0.188
  },
  {
    "Macromolecule sequence": "ATTGTCAA",
    "Measurement": 0.12
  }
]
